target: T1, recombinant extracellular domain of human BAFF-R (Homo sapiens, UniProt Q96RJ3); experiment: Biacore analysis of binding affinity of humanized BAFF-R antibody variants
T1 construct: The antigen was commercial, recombinant extracellular domain of human BAFF-R; purchased
assay.metric: kdis

[[record]]
molecule = "Humanized HC3 + LC1 (antibody, V domains shown) VH: EVQLQESGPGLVKPSETLSLTCSVSGDSITSGYWNWIRQPPGKGLEYIGYISYSGSTYYNPSLKSRVTISRDTSKNQYSLRLSSVTAADTALYYCASPNYPFYAMDYWGQGTRVTVSS VL: EIVLTQSPATLSLSPGERATLSCRASESVDNYGISFLNWFQQKPGQAPRLLIYAASNRATGIPARFSGSGSGTDFTLTISSLEPEDFAVYYCQQSKEVPWTFGGGTKVEIKRTV"
reported_measurement = "0.0031 s⁻¹"

